Experiment: Microsomal stability assay, HLM
Format: in vitro ADME
Settings: human, pH 7.4, 1 μM test compound, 0.5 mg/mL liver microsomes protein, 37° C., 0-60 min, read-out: HLM +/− NADPH: Clint (μL/min/mg protein)
measuredEndpoint: microsomal CLint at 1 μM

In [3]: df
Out[3]:
                       smilesrepresentation  observedmeasurement
0  CC(C)(c1ccc(CNC(=O)CNS(C)(=O)=O)cc1)c1cc(Cl)c(OCCCCl)c(Cl)c1   12 to 48 µL/min/mg
1  CN(C)C(=O)NCc1ccc(C(C)(C)c2cc(Cl)c(OCCCCl)c(Cl)c2)cc1       ≥ 48 µL/min/mg
2  CC(C)(c1ccc(NCC(=O)CNS(C)(=O)=O)cc1)c1cc(Cl)c(OCCCCl)c(Cl)c1       ≥ 48 µL/min/mg
3  Cc1cc(C(C)(C)c2ccc(OCCCCl)cc2)ccc1OCC(=O)CNS(C)(=O)=O       ≥ 48 µL/min/mg

Continue with the compound presented below.
Determine its reported microsomal CLint at 1 μM: Cc1cc(OCCCCl)ccc1C(C)(C)c1ccc(OCC(=O)CNS(C)(=O)=O)cc1
≥ 48 µL/min/mg
